- Test system: Mus musculus
- Method summary: Neurotoxicity in albino CF1 mouse assessed as minimal motor impairment at 100 mg/kg, ip after 0.5 hr by rotorod test
- Type: toxicity, organism-based
- Design: dose 100 mg/kg, route intraperitoneal
- Cond: in vivo
Measurement kind: Activity

Consider the worked cases shown below.
### Prompt Item NC(=O)c1ccccc1OC1CCOC1=O (racemic) has what recorded Activity?
### Response Non-toxic

### Prompt For the compound shown here, O=C1OCCC1N1C(=O)c2ccccc2C1=O (racemic) , give the reported Activity.
### Response Toxic

### Prompt Given the compound `C/C(NCc1ccccc1)=C1\CCOC1=O` , what is its reported Activity?
### Response Non-toxic

### Prompt Any idea what its Activity is? The compound is O=C1OCCC1N1CCc2ccccc2C1 (racemic)
### Response Non-toxic

### Prompt So what does the record say about Activity for Cl.O=C1OCCC1NCc1ccccc1 (racemic) ?
### Response Non-toxic

Others:
### Prompt Which value of Activity has been reported for CC1CC(NCc2ccccc2)C(=O)O1.Cl (mixture of isomers) in the records?
### Response Non-toxic

### Prompt Recorded Activity for COc1ccc(Cl)cc1N1CCN(C2CCOC2=O)CC1 (racemic) , please?
### Response Toxic

### Prompt Give its Activity value. Item: COc1ccccc1N1CCN(C2CCOC2=O)CC1 (racemic)
### Response Non-toxic

### Prompt What does the record list as Activity for `C/C(Nc1ccccc1)=C1\CCOC1=O` ?
### Response Non-toxic

### Prompt Suppose we examine the compound O=C1OCCC1N1CCN(c2ccc(F)cc2)CC1 (racemic) ; what Activity value has been reported?
### Response Toxic

### Prompt Query (compound): COc1cc2c(cc1OC)CN(C1CCOC1=O)CC2 (racemic) ; field requested: Activity
### Response Non-toxic

### Prompt I am curious: what Activity value has been reported for O=C1OCCC1N1CCC(Cc2ccccc2)CC1 (racemic) ?
### Response Non-toxic
